# system.under.test: yeast α-glycosidase (Saccharomyces cerevisiae, UniProt P38158)
# Sequence (P38158 whole entry): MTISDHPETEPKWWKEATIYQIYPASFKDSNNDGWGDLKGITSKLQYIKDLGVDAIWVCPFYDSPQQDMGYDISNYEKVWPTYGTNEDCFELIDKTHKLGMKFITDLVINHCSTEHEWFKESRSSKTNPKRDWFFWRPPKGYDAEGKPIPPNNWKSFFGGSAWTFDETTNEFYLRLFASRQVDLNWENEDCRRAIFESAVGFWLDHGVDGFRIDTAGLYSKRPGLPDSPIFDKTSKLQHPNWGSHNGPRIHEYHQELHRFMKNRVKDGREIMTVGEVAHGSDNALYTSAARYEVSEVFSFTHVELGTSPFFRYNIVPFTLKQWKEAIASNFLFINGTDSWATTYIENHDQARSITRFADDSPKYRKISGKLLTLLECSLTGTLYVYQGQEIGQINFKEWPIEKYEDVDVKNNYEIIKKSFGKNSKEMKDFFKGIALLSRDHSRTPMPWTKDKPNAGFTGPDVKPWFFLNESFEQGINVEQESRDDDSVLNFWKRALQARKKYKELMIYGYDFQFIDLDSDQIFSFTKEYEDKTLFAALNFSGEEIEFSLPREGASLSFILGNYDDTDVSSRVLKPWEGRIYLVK
# procedure.details: biochemical
// reported IC50 per item
quantity.measured: IC50

compound	result
N#Cc1c(-c2ccccc2O)cc(N2C(=O)c3ccccc3C2=O)nc1N [compound 7c]	110 µM
N#Cc1c(-c2ccccc2)cc(N2C(=O)c3ccccc3C2=O)[nH]c1=O [compound 8a]	1000 µM
N#Cc1c(-c2ccc(Cl)cc2)nn(C(=O)COc2cccc3cccnc23)c1N [compound 4b]	990 µM
CC(=NNC(=O)COc1cccc2cccnc12)c1ccc(N2C(=O)c3ccccc3C2=O)cc1 [compound 3]	470 µM
N#Cc1c(-c2ccc([N+](=O)[O-])cc2)cc(N2C(=O)c3ccccc3C2=O)[nH]c1=O [8b]	1010 µM
N#Cc1c(-c2ccc(Cl)c(Cl)c2O)cc(N2C(=O)c3ccccc3C2=O)nc1N [compound 7d]	70 µM
N#Cc1c(-c2ccccc2O)cc(N2C(=O)c3ccccc3C2=O)[nH]c1=O [8c]	1800 µM
N#Cc1c(-c2ccc([N+](=O)[O-])cc2)cc(N2C(=O)c3ccccc3C2=O)nc1N [7b]	1050 µM
N#Cc1c(-c2ccccc2)cc(N2C(=O)c3ccccc3C2=O)nc1N [compound 7a]	1780 µM
N#Cc1c(-c2ccccc2O)nn(C(=O)COc2cccc3cccnc23)c1N [4c]	1110 µM
N#Cc1c(-c2ccc([N+](=O)[O-])cc2)nn(C(=O)COc2cccc3cccnc23)c1N [4a]	240 µM
S=C1N=NC(COc2cccc3cccnc23)=N1 [compound 6]	1500 µM
N#Cc1c(-c2ccc(Cl)c(Cl)c2O)cc(N2C(=O)c3ccccc3C2=O)[nH]c1=O [8d]	2220 µM
